Data provenance is patent US9932303B2.

- procedure-text: In vitro stability in rat plasma
- Format: in vitro ADME
- reported-conditions: male, pH 7.4, 37° C., read-out: T1/2 (minutes) Rat
- Description: Certain compounds from Table 1 were tested for their stability in plasma. The assay system comprised (i) PBS, or plasma from rat, dog or human (at least 3 donors, male, pooled) at pH 7.4, and (ii) for tests conducted in plasma, an anticoagulant (sodium heparin or sodium citrate). […] Half-lives (T1/2) of the test compounds were determined from graphs of the percent remaining values using the peak area response ratio.
measurement-type: half-life at 5 μM

Worked set:
line-notation	half-life at 5 μM
O=S(=O)(Cc1ccccc1Cl)NO	38 min
O=S(=O)(Cc1ccc(Cl)cc1)NO	114 min
O=S(=O)(Cc1ccc(F)cc1F)NO	36 min
O=S(=O)(Cc1ccc(C(F)(F)F)cc1)NO	42 min
O=S(=O)(Cc1ccc(Cl)c(Cl)c1)NO	54 min

Now for a further compound.
Form field half-life at 5 μM, entry `Cc1cccc(CS(=O)(=O)NO)c1` : 61 min
